# system.tested: COVID-19 S1 Spike Protein Mutant V483A (SARS-CoV-2), P0DTC2
# experiment.notes: FP direct binding
Non-standard residues stand in square brackets, D forms with d. No end group written: not given here. Sar = CNCC(=O)O
outcome.measure: Kd
The answer should read as a number with its unit following.

ACEDHDWVYCSTCA[Sar][Sar][Sar][Sar][Sar][Sar][KFl] (cysteine pairing not given here) [BCY15299] : 988 nM
ACDVCGLNAFNRCA[Sar][Sar][Sar][Sar][Sar][Sar][KFl] (cysteine pairing not given here) [BCY16287] : 69 nM

Query: Quickly give me recorded Kd for ACRQSQCDWWAIRSFCA[Sar][Sar][Sar][Sar][Sar][Sar][KFl] (cysteine pairing not given here) [BCY15324]
Response: 751 nM
